# Assay overview: Pharmacokinetics in AAV8-Ctrl mice
# Condition context: C57BL/6J, mouse, serum, po, 16.5 mg/kg, Cmax, aumolertinib 16.5 mg/kg oral alone (Aum)
Readout: Cmax (ng/mL)
Kindly provide the numeric value in ng/mL only, without the unit symbol.

Entry C=CC(=O)Nc1cc(Nc2nccc(-c3cn(C4CC4)c4ccccc34)n2)c(OC)cc1N(C)CCN(C)C has what Cmax?
177

###

# Assay overview: Pharmacokinetics in AAV8-Ctrl mice
# Condition context: C57BL/6J, mouse, serum, po, 16.5 mg/kg, Vz/F, telmisartan 12 mg/kg 0.5 h before aumolertinib 16.5 mg/kg oral (Tel+Aum)
Readout: Vd/F (L/kg)
Kindly provide the numeric value in L/kg only, without the unit symbol.

Entry C=CC(=O)Nc1cc(Nc2nccc(-c3cn(C4CC4)c4ccccc34)n2)c(OC)cc1N(C)CCN(C)C has what Vd/F?
68.2

###

# Assay overview: Pharmacokinetics in AAV8-CYP3A4*12 mice
# Condition context: C57BL/6J, mouse, serum, po, 16.5 mg/kg, CLz/F, carvedilol 7.5 mg/kg 0.5 h before aumolertinib 16.5 mg/kg oral (Car+Aum)
Readout: CL/F (mL/min/kg)
Kindly provide the numeric value in mL/min/kg only, without the unit symbol.

Entry C=CC(=O)Nc1cc(Nc2nccc(-c3cn(C4CC4)c4ccccc34)n2)c(OC)cc1N(C)CCN(C)C has what CL/F?
124

###

# Assay overview: Pharmacokinetics in AAV8-CYP3A4*12 mice
# Condition context: C57BL/6J, mouse, serum, po, 16.5 mg/kg, Tmax, aumolertinib 16.5 mg/kg oral alone (Aum)
Readout: Tmax (h)
Kindly provide the numeric value in h only, without the unit symbol.

Entry C=CC(=O)Nc1cc(Nc2nccc(-c3cn(C4CC4)c4ccccc34)n2)c(OC)cc1N(C)CCN(C)C has what Tmax?
5.14

###

# Assay overview: Pharmacokinetics in AAV8-CYP3A4*1 mice
# Condition context: C57BL/6J, mouse, in vivo, po, 16.5 mg/kg, Cmax, telmisartan 12 mg/kg 0.5 h before aumolertinib 16.5 mg/kg oral (Tel+Aum)
Readout: Cmax (ng/mL)
Kindly provide the numeric value in ng/mL only, without the unit symbol.

Entry C=CC(=O)Nc1cc(Nc2nccc(-c3cn(C4CC4)c4ccccc34)n2)c(OC)cc1N(C)CCN(C)C has what Cmax?
154

###

# Assay overview: Pharmacokinetics of aumolertinib and HAS-719 in SD rats
# Condition context: Sprague-Dawley, rat, plasma, po, 11 mg/kg, CLz/F, aumolertinib 11 mg/kg oral alone (Aum)
Readout: CL/F (L/h/kg)
Kindly provide the numeric value in L/h/kg only, without the unit symbol.

Entry C=CC(=O)Nc1cc(Nc2nccc(-c3cn(C4CC4)c4ccccc34)n2)c(OC)cc1N(C)CCN(C)C has what CL/F?
186

###

# Assay overview: Pharmacokinetics in AAV8-CYP3A4*12 mice
# Condition context: C57BL/6J, mouse, serum, po, 16.5 mg/kg, Tmax, telmisartan 12 mg/kg 0.5 h before aumolertinib 16.5 mg/kg oral (Tel+Aum)
Readout: Tmax (h)
Kindly provide the numeric value in h only, without the unit symbol.

Entry C=CC(=O)Nc1cc(Nc2nccc(-c3cn(C4CC4)c4ccccc34)n2)c(OC)cc1N(C)CCN(C)C has what Tmax?
9.43

###

# Assay overview: Pharmacokinetics of aumolertinib and HAS-719 in SD rats
# Condition context: Sprague-Dawley, rat, plasma, po, 11 mg/kg, Tmax, carvedilol 5 mg/kg oral 0.5 h before aumolertinib 11 mg/kg oral (Car + Aum)
Readout: Tmax (h)
Kindly provide the numeric value in h only, without the unit symbol.

Entry C=CC(=O)Nc1cc(Nc2nccc(-c3cn(C4CC4)c4ccccc34)n2)c(OC)cc1N(C)CCN(C)C [Aumolertinib] has what Tmax?
7.33

###

# Assay overview: Pharmacokinetics in AAV8-CYP3A4*1 mice
# Condition context: C57BL/6J, mouse, in vivo, po, 16.5 mg/kg, CLz/F, carvedilol 7.5 mg/kg 0.5 h before aumolertinib 16.5 mg/kg oral (Car+Aum)
Readout: CL/F

Entry C=CC(=O)Nc1cc(Nc2nccc(-c3cn(C4CC4)c4ccccc34)n2)c(OC)cc1N(C)CCN(C)C [Aumolertinib] has what CL/F?
145 mL/min/kg

###

# Assay overview: Pharmacokinetics of aumolertinib and HAS-719 in SD rats
# Condition context: Sprague-Dawley, rat, plasma, po, 11 mg/kg, t1/2z, telmisartan 8 mg/kg oral 0.5 h before aumolertinib 11 mg/kg oral (Tel + Aum)
Readout: half-life (h)
Kindly provide the numeric value in h only, without the unit symbol.

Entry C=CC(=O)Nc1cc(Nc2nccc(-c3cn(C4CC4)c4ccccc34)n2)c(OC)cc1N(C)CCN(C)C has what half-life?
3.21

###

# Assay overview: Pharmacokinetics in AAV8-Ctrl mice
# Condition context: C57BL/6J, mouse, serum, po, 16.5 mg/kg, t1/2z, carvedilol 7.5 mg/kg 0.5 h before aumolertinib 16.5 mg/kg oral (Car+Aum)
Readout: half-life (min)
Kindly provide the numeric value in min only, without the unit symbol.

Entry C=CC(=O)Nc1cc(Nc2nccc(-c3cn(C4CC4)c4ccccc34)n2)c(OC)cc1N(C)CCN(C)C [Aumolertinib] has what half-life?
187

###

# Assay overview: Pharmacokinetics in AAV8-Ctrl mice
# Condition context: C57BL/6J, mouse, serum, po, 16.5 mg/kg, AUC(0-∞), carvedilol 7.5 mg/kg 0.5 h before aumolertinib 16.5 mg/kg oral (Car+Aum)
Readout: AUC(0-inf) (ng·h/mL)
Kindly provide the numeric value in ng·h/mL only, without the unit symbol.

Entry C=CC(=O)Nc1cc(Nc2nccc(-c3cn(C4CC4)c4ccccc34)n2)c(OC)cc1N(C)CCN(C)C has what AUC(0-inf)?
1980

###

# Assay overview: Pharmacokinetics in AAV8-CYP3A4*12 mice
# Condition context: C57BL/6J, mouse, serum, po, 16.5 mg/kg, CLz/F, telmisartan 12 mg/kg 0.5 h before aumolertinib 16.5 mg/kg oral (Tel+Aum)
Readout: CL/F (mL/min/kg)
Kindly provide the numeric value in mL/min/kg only, without the unit symbol.

Entry C=CC(=O)Nc1cc(Nc2nccc(-c3cn(C4CC4)c4ccccc34)n2)c(OC)cc1N(C)CCN(C)C has what CL/F?
51.3

###

# System under test: CYP3A4.1 (Homo sapiens, UniProt P08684)
# Sequence (P08684 whole entry): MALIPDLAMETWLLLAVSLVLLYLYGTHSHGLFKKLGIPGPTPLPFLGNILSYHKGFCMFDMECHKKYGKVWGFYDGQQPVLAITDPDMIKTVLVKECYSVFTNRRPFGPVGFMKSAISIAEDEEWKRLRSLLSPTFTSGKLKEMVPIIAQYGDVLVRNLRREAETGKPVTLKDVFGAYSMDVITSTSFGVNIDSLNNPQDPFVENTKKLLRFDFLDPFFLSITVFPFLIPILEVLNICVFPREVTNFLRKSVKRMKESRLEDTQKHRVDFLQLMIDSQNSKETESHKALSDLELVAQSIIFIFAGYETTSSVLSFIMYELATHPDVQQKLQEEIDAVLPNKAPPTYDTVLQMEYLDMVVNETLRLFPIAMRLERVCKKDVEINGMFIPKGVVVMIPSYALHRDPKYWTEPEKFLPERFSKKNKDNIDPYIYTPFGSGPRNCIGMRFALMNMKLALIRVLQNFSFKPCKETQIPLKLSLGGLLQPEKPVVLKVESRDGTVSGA
# Assay overview: Enzyme kinetics of aumolertinib, recombinant CYP3A4.1
# Assay type: in vitro ADME
# Parameters: made in house; host or cells: Sf21 insect cells (baculovirus)
# Condition context: human, recombinant CYP3A4.1 cell microsomes (Sf21 insect cells); CYP3A4.1, text value
Readout: Km (µM)
Kindly provide the numeric value in µM only, without the unit symbol.

Entry C=CC(=O)Nc1cc(Nc2nccc(-c3cn(C4CC4)c4ccccc34)n2)c(OC)cc1N(C)CCN(C)C [Aumolertinib] has what Km?
3.2

###

# System under test: human liver microsomes (HLM)
# Assay overview: Inhibition of aumolertinib metabolism in human liver microsomes (IC50, Ki)
# Condition context: HLM, Lineweaver-Burk secondary plot
Readout: pKi
Notebook: values listed as pKi are -log10 of the concentration (mol/L).

Entry COc1ccccc1OCCNCC(O)COc1cccc2[nH]c3ccccc3c12 (stereo not shown) [Carvedilol] has what pKi?
5.06

###

# Assay overview: Pharmacokinetics in AAV8-CYP3A4*12 mice
# Condition context: C57BL/6J, mouse, serum, po, 16.5 mg/kg, Tmax, carvedilol 7.5 mg/kg 0.5 h before aumolertinib 16.5 mg/kg oral (Car+Aum)
Readout: Tmax (h)
Kindly provide the numeric value in h only, without the unit symbol.

Entry C=CC(=O)Nc1cc(Nc2nccc(-c3cn(C4CC4)c4ccccc34)n2)c(OC)cc1N(C)CCN(C)C has what Tmax?
8

###

# Assay overview: Pharmacokinetics in AAV8-CYP3A4*1 mice
# Condition context: C57BL/6J, mouse, in vivo, po, 16.5 mg/kg, Tmax, carvedilol 7.5 mg/kg 0.5 h before aumolertinib 16.5 mg/kg oral (Car+Aum)
Readout: Tmax (h)
Kindly provide the numeric value in h only, without the unit symbol.

Entry C=CC(=O)Nc1cc(Nc2nccc(-c3cn(C4CC4)c4ccccc34)n2)c(OC)cc1N(C)CCN(C)C [Aumolertinib] has what Tmax?
11.6

###

# Assay overview: Pharmacokinetics in AAV8-CYP3A4*12 mice
# Condition context: C57BL/6J, mouse, serum, po, 16.5 mg/kg, AUC(0-t), aumolertinib 16.5 mg/kg oral alone (Aum)
Readout: AUC(0-t) (ng·h/mL)
Kindly provide the numeric value in ng·h/mL only, without the unit symbol.

Entry C=CC(=O)Nc1cc(Nc2nccc(-c3cn(C4CC4)c4ccccc34)n2)c(OC)cc1N(C)CCN(C)C has what AUC(0-t)?
3300

###

# Assay overview: Pharmacokinetics in AAV8-CYP3A4*1 mice
# Condition context: C57BL/6J, mouse, in vivo, po, 16.5 mg/kg, AUC(0-t), telmisartan 12 mg/kg 0.5 h before aumolertinib 16.5 mg/kg oral (Tel+Aum)
Readout: AUC(0-t) (ng·h/mL)
Kindly provide the numeric value in ng·h/mL only, without the unit symbol.

Entry C=CC(=O)Nc1cc(Nc2nccc(-c3cn(C4CC4)c4ccccc34)n2)c(OC)cc1N(C)CCN(C)C has what AUC(0-t)?
2890
